Data origin: paper doi:10.1101/2025.05.23.655772

# assay system: T1, catalytically inactive USP5 C335A (human, UniProt P45974 1-858, C335A)
# T1 construct: ubiquitin-specific protease 5 (USP5), human, catalytic cysteine mutated; The His tag is used for detection in the TR-FRET assay; also called His-USP5^C335A; source: E. coli BL21 (DE3), purified (Ni-NTA, SEC)
# T1 sequence (looked up): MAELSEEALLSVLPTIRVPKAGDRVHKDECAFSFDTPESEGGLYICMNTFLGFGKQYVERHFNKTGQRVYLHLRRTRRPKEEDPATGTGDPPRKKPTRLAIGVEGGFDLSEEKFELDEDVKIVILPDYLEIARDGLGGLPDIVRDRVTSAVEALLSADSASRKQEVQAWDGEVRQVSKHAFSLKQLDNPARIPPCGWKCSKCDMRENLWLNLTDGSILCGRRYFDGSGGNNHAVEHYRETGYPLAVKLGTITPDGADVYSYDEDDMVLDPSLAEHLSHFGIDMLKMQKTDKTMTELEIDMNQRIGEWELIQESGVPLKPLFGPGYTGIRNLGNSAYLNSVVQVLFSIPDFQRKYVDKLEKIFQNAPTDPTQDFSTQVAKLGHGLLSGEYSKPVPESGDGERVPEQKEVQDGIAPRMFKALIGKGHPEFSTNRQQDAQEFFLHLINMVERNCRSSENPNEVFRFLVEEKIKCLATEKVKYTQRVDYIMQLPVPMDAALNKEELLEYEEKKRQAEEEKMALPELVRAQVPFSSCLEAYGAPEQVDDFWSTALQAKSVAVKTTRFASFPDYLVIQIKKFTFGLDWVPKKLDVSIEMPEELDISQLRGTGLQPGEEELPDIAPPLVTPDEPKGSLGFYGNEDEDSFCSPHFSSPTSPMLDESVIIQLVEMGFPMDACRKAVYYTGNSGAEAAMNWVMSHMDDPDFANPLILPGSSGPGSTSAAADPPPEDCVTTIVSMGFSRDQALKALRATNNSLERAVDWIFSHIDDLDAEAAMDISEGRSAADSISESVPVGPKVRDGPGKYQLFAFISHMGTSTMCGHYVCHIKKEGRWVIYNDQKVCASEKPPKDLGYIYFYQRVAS
# procedure details: ITC; ITC200 at 298 K; 50 mM HEPES, 100 mM NaCl, 1 mM TCEP, pH 7.5; SDE2 construct or monoubiquitin titrated into USP5 (10-12 µM); duplicate
# condition parameters: both partners purified
test readout: pKd
Numbers only, as −log10 of the molar value.

## Task For the binder SDE2 N-terminal ubiquitin-like domain, SDE2UBL(1-77) (domain or fragment, human, UniProt Q6IQ49 1-77, looked up, Silencing Defective 2 (SDE2), human, residues 1-77 (ubiquitin-like domain ending in the Gly-Gly motif); source: E. coli BL21 (DE3), purified (Ni-NTA, SUMO protease cleavage, SEC); not shown: His, N-terminal, cleaved; SUMO, N-terminal, cleaved) MAEAAALVWIRGPGFGCKAVRCASGRCTVRDFIHRHCQDQNVPVENFFVKCNGALINTSDTVQHGAVYSLEPRLCGG , give its measured pKd value.
## Result 5.78
